Biological target: T1, TRAF2, Q12933
T1 chain: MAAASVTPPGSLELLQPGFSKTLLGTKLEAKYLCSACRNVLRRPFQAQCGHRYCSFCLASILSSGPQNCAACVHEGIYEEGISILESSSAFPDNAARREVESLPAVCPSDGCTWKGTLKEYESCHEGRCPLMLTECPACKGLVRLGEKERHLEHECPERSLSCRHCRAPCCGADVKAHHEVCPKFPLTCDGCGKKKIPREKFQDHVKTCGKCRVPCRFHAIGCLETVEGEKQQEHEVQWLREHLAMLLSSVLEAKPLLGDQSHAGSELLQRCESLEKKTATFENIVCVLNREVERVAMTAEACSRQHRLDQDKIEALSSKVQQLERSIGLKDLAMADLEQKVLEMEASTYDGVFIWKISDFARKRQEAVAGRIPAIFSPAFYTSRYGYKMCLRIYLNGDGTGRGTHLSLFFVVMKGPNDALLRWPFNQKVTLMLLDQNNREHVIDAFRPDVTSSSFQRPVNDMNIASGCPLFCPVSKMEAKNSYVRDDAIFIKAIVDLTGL
Experiment: median log2 fold change of GCK-ALFA target abundance (FLAG IP / Myc IP barcode read proportion) (log2 ratio); each designed protein is fused to an ALFA-tag nanobody in HEK293 cells to bring the named protein to FLAG-tagged glucokinase (GCK); Myc marks an untargeted standard; higher = target protein stabilised (more abundant)
Settings: target protein: 3xFLAG-MCP-GCK-ALFA reporter; HEK293 landing pad (RPLP)
Over roughly 1,800 sequences, “median log2 fold change of GCK-ALFA target abundance (FLAG IP / Myc IP barcode read proportion)” has its median near 0.14; the lowest 2% begin near -0.84. Only a selection was taken, and the lowest values are over-represented in it overall.
Recorded metric: median log2 fold change
Form: value (number only, do not type unit).

**Query** // median log2 fold change lookup, key: traf2_out_18_167_1835 (protein) EEEKEKKRNELLDEMIDISEHYRAAIEYLELLAKDPKEAEAKKEEYMKKIDKDPELVAKIKEVLALPDEERKKAAKALADEVYDERQKKMQELWDKREAV
**Result** 0.297

**Query** // median log2 fold change lookup, key: traf2_out_13_95_1115 (protein) SKELAEKIMEISDKALDQANALLDALEAKIKASGKLAPEVAAALAAAKKSTISTAIHTLKELAKKYPEFKADFEATIAQLEQIRRDAGREVAKLIKEEKE
**Result** -0.178

**Query** // median log2 fold change lookup, key: traf2_out_11_169_872 (protein) KEAEKNRKLNDFALELNDEAKEKLKEFALKLAKELGLDVEEVKKIFEENKNKSLSAVAAALIKYFKEKGKEDAAAKIEKKYEELKEEINKKTSEKIKELE
**Result** 0.289

**Query** // median log2 fold change lookup, key: traf2_out_16_177_1462 (protein) ELDKIMDRIVVLSKIKRAAEYAIENKKEEAEKYLKEAEKEAEEAGDEEGLKKIKELKELMEKNTEEAKKKLKELAKEAQKEAGKLVDEAEALLKARAAAE
**Result** -0.0546

All figures here come from the supplement of paper PMC12632987.
